Could you please report measured pIC50 Category (Activity) for the items listed next?
# Study system: Recombinant human FAP (R&D systems, #3715-SE) (human, UniProt Q12884 26-760)
# Sequence (Q12884 26-760 limits assumed): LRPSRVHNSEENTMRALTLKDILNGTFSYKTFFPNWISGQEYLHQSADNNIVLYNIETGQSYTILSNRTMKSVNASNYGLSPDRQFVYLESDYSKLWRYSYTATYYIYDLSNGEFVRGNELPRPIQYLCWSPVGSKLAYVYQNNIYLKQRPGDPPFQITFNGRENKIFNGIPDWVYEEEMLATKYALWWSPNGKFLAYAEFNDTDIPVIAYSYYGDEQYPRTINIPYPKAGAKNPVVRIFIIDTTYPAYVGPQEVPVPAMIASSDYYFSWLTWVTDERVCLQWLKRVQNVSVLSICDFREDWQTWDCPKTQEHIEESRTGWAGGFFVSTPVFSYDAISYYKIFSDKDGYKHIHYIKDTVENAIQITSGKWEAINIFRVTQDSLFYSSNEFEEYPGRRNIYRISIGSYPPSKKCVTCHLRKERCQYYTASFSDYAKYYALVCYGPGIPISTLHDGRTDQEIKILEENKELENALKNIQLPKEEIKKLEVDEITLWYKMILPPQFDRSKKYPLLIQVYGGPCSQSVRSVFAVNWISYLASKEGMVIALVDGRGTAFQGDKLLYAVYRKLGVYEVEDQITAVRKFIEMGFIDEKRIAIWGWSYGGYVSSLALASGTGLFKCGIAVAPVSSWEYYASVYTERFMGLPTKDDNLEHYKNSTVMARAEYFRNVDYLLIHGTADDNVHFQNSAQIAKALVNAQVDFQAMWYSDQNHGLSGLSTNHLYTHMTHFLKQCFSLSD
# Measurement notes: cell-based or functional assay
Numbered stars: 1 amine (or outer) side, 2 acyl side, 3 side chain; on linkers, the order of the positions; unused ones are H or OH. Bridge positions count the residues as written; N and C are the ends. Square brackets hold non-standard residues; d marks the D form. Primed or numbered codes have the meaning given here. * marks the point of attachment. tMeBn(DOTA-PP) = 1,3,5-trimethylbenzylidene, two thioethers to Cys, third CH2 bound to one N of piperazine whose other N bears DOTA, O=C(O)CN1CCN(CC(=O)O)CCN(CC(=O)N2CCN(Cc3cc(C[*:1])cc(C[*:2])c3)CC2)CCN(CC(=O)O)CC1; Ttds″ = 1,13-diamino-4,7,10-trioxatridecan-succinamic acid spacer, O=C(CCC(=O)[*:2])NCCCOCCOCCOCCCN[*:1]; TBMB(SCH2CH2NH-DOTA) = O=C(O)CN1CCN(CC(=O)O)CCN(CC(=O)NCCSCc2cc(C[*:1])cc(C[*:2])c2)CCN(CC(=O)O)CC1; N4Ac = 6-Carboxy-1,4,8,11-tetraazaundecane, an N4-chelator, NCCNCC(CNCCN)C(=O)*; DOTA = O=C(O)CN1CCN(CC(=O)O)CCN(CC(=O)*)CCN(CC(=O)O)CC1; nBu‑CAyl = n-butylaminocarbonyl, CCCCNC(=O)*; γGlu = O=C(O)[C@H](CCC(=O)[*:2])N[*:1]; mXylylene = c1cc(C[*:1])cc(C[*:2])c1; Pentanesulfonyl = CCCCCS(=O)(=O)*; Nle = CCCC[C@H](N)C(=O)O; Nphe = O=C(O)CNCc1ccccc1; Hexanoyl = CCCCCC(=O)*; Nlys = NCCCCNCC(=O)O; Sar = CNCC(=O)O

Take a look at these entries with their results.
Binder	pIC50 Category (Activity)
Hexanoyl-CPPTQFCD[Ttds″]K(DOTA)-NH2 (linker 1-7 via TBMB(SCH2CH2NH-DOTA); not fully specified (residue 1); printed as Hex-[Cys(tMeBn(DOTA-AET))-Pro-Pro-Thr-Gln-Phe-Cys]-Asp-Ttds-Lys(DOTA)-NH2, also called 3BP-4391) [Hex-[Cys(tMeBn(DOTA-AET))-Pro-Pro-Thr-Gln-Phe-Cys]-Asp-Ttds-Lys(DOTA)-NH2]	> 8 pIC50
Hexanoyl-C[Sar]PTQFC-OH (bridge 1-7; not fully specified (residue 1, bridges); printed as Hex-[Cys(tMeBn(DOTA-PP))-Nmg-Pro-Thr-Gln-Phe-Cys]-OH, also called 3BP-3771) [Hex-[Cys(tMeBn(DOTA-PP))-Nmg-Pro-Thr-Gln-Phe-Cys]-OH]	> 8 pIC50

Record pIC50 Category (Activity) for all entries; do not skip any.
1. Hexanoyl-CPPTQFCD-NH2 (linker 1-7 via tMeBn(H-AET), also called 3BP-3981) [Hex-[Cys-(tMeBn(H-AET))-Pro-Pro-Thr-Gln-Phe-Cys]-Asp-NH2]
2. Hexanoyl-C[Sar]PTQFC-NH2 (linker 1-7 via TBMB(SCH2CH2NH-DOTA); SMILES CCCCCC(=O)N[C@H]1CSCc2cc(CSCCNC(=O)CN3CCN(CC(=O)O)CCN(CC(=O)O)CCN(CC(=O)O)CC3)cc(c2)CSC[C@@H](C(N)=O)NC(=O)[C@H](Cc2ccccc2)NC(=O)[C@H](CCC(N)=O)NC(=O)[C@H]([C@@H](C)O)NC(=O)[C@@H]2CCCN2C(=O)CN(C)C1=O, also called 3BP-3744) [Hex-[Cys(tMeBn(DOTA-AET))-Nmg-Pro-Thr-Gln-Phe-Cys]-NH2]
3. Pentanesulfonyl-CPPTQFCD-NH2 (linker 1-7 via tMeBn(InDOTA-PP); also: In complex of DOTA (InDOTA), also called 3BP-3717) [Pentyl-SO2-[Cys(tMeBn(InDOTA-PP))-Pro-Pro-Thr-Gln-Phe-Cys]-Asp-NH2]
4. Hexanoyl-CTQPFPCD-NH2 (linker 1-7 via tMeBn(DOTA-PP); SMILES CCCCCC(=O)N[C@H]1CSCc2cc(cc(CN3CCN(C(=O)CN4CCN(CC(=O)O)CCN(CC(=O)O)CCN(CC(=O)O)CC4)CC3)c2)CSC[C@@H](C(=O)N[C@@H](CC(=O)O)C(N)=O)NC(=O)[C@@H]2CCCN2C(=O)[C@H](Cc2ccccc2)NC(=O)[C@@H]2CCCN2C(=O)[C@H](CCC(N)=O)NC(=O)[C@H]([C@@H](C)O)NC1=O) [Hex-[Cys(tMeBn(DOTA-PP))-Thr-Gln-Pro-Phe-Pro-Cys]-Asp-NH2]
5. Hexanoyl-C[Nlys]PTQFC-NH2 (linker 1-7 via mXylylene; SMILES CCCCCC(=O)N[C@H]1CSCc2cccc(c2)CSC[C@@H](C(N)=O)NC(=O)[C@H](Cc2ccccc2)NC(=O)[C@H](CCC(N)=O)NC(=O)[C@H]([C@@H](C)O)NC(=O)[C@@H]2CCCN2C(=O)CN(CCCCN)C1=O) [Hex-[Cys(3MeBn)-Nlys-Pro-Thr-Gln-Phe-Cys]-NH2]
6. Hexanoyl-C[Nphe]PTQFC-NH2 (linker 1-7 via mXylylene; SMILES CCCCCC(=O)N[C@H]1CSCc2cccc(c2)CSC[C@@H](C(N)=O)NC(=O)[C@H](Cc2ccccc2)NC(=O)[C@H](CCC(N)=O)NC(=O)[C@H]([C@@H](C)O)NC(=O)[C@@H]2CCCN2C(=O)CN(Cc2ccccc2)C1=O) [Hex-[Cys(3MeBn)-Nphe-Pro-Thr-Gln-Phe-Cys]-NH2]
7. N4Ac-[γGlu][Nle]CPPTEFC-OH (linker 3-9 via mXylylene; SMILES CCCC[C@H](NC(=O)CC[C@H](NC(=O)C(CNCCN)CNCCN)C(=O)O)C(=O)N[C@H]1CSCc2cccc(c2)CSC[C@@H](C(=O)O)NC(=O)[C@H](Cc2ccccc2)NC(=O)[C@H](CCC(=O)O)NC(=O)[C@H]([C@@H](C)O)NC(=O)[C@@H]2CCCN2C(=O)[C@@H]2CCCN2C1=O) [N4Ac-gGlu-Nle-[Cys-(3MeBn)-Pro-Pro-Thr-Glu-Phe-Cys]-OH]
8. {nBu‑CAyl}-C[Sar]PTQFC-NH2 (linker 1-7 via TBMB(SCH2CH2NH-DOTA); SMILES CCCCNC(=O)N[C@H]1CSCc2cc(CSCCNC(=O)CN3CCN(CC(=O)O)CCN(CC(=O)O)CCN(CC(=O)O)CC3)cc(c2)CSC[C@@H](C(N)=O)NC(=O)[C@H](Cc2ccccc2)NC(=O)[C@H](CCC(N)=O)NC(=O)[C@H]([C@@H](C)O)NC(=O)[C@@H]2CCCN2C(=O)CN(C)C1=O, also called 3BP-4621) [nBu-CAyl-[Cys(tMeBn(DOTA-AET))-Nmg-Pro-Thr-Gln-Phe-Cys]-NH2]

Data returned:
1: > 8 pIC50; 2: > 8 pIC50; 3: > 8 pIC50; 4: ≤ 6 pIC50; 5: ≤ 6 pIC50; 6: ≤ 6 pIC50; 7: ≤ 6 pIC50; 8: > 8 pIC50

Data request: Please give the measured pIC50 Category (Activity) for this binder: Hexanoyl-CPTPFQCD-NH2 (linker 1-7 via tMeBn(DOTA-PP); SMILES CCCCCC(=O)N[C@H]1CSCc2cc(cc(CN3CCN(C(=O)CN4CCN(CC(=O)O)CCN(CC(=O)O)CCN(CC(=O)O)CC4)CC3)c2)CSC[C@@H](C(=O)N[C@@H](CC(=O)O)C(N)=O)NC(=O)[C@H](CCC(N)=O)NC(=O)[C@H](Cc2ccccc2)NC(=O)[C@@H]2CCCN2C(=O)[C@H]([C@@H](C)O)NC(=O)[C@@H]2CCCN2C1=O) [Hex-[Cys(tMeBn(DOTA-PP))-Pro-Thr-Pro-Phe-Gln-Cys]-Asp-NH2]
Data returned: ≤ 6 pIC50
